Biological target: human cyclin-dependent kinase 2 (Cdk2) (Homo sapiens)
Construct: poly-histidine; made in house; host or cells: E. coli
Test: Kinetic thiol consumption assay with wild type Cdk2 (C177)
Assay type: binding
Details: Protein: Cdk2; cysteine position WT; in h^-1
PROPERTY_MEASURED: Rate constant with Cdk2 WT

In the examples that follow, each entry is paired with its recorded Rate constant with Cdk2 WT.
INSERT INTO results (molecule, property_measured, recorded_measurement) VALUES
  ('C=CC(=O)NC1c2ccccc2Oc2ccccc21', 'Rate constant with Cdk2 WT', 0.01128),
  ('C=CC(=O)Nc1cccc(C(F)(F)F)c1 [EL-1007]', 'Rate constant with Cdk2 WT', 0.03473),
  ('C=CC(=O)NC1(C(N)=O)CCCCC1', 'Rate constant with Cdk2 WT', 0.004821);

A. C=CC(=O)N1CCN(S(C)(=O)=O)CC1c1ccccc1 (stereo not drawn)
B. C=CC(=O)N1CCC(NC(=O)C2CCC2)C1 (stereo not drawn)
C. C=CC(=O)Nc1nc2cc3c(cc2s1)OC(F)(F)O3
Sort (3 molecules) by Rate constant with Cdk2 WT: min first. Answer by writing out the labels in the requested order. B, A, C

Recorded values, source patent US11415579B2.
